Protein target, amino acids: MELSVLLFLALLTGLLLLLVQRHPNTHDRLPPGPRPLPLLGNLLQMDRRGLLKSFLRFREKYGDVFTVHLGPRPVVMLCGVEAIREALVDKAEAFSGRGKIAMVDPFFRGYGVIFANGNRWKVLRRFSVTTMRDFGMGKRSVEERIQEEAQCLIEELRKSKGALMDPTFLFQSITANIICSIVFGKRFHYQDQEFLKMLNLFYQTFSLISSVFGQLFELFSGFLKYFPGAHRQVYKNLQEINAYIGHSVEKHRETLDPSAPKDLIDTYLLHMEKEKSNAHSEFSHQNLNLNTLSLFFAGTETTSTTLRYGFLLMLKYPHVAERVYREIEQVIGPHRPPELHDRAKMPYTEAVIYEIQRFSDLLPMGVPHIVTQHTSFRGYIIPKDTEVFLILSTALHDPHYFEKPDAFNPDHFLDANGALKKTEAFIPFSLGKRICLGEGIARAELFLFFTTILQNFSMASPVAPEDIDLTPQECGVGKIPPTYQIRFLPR
Here the recorded IC50 is given for each entry.

-- ask Returns the measured IC50 for the input molecule. Input: Cc1cc(Nc2ncnc3ccc(NC4=NC(C)(C)CO4)cc23)ccc1Oc1ccn2ncnc2c1 [ARRY-380, reference compound]
-- reply > 100 µM

-- ask Lookup Cc1cc(Nc2ncnc3ccc(NC4=NC(C)(C)CO4)cc23)ccc1Oc1cc2nncn2cn1
-- reply > 100 µM

Sourced from patent US10828305B2
